Item-by-item account of LD50
test: Lethal dose in male mice (administered ip), activity expressed as LD50 values.; type: toxicity, organism-based; conditions: mouse, in vivo
measure name: LD50

molecule=CCCN1CCO[C@@H]2c3cccc4[nH]c(Br)c(c34)C[C@H]21 result="> 200 mg/kg"
molecule=c1cc2c3c(c[nH]c3c1)C[C@H]1NCCO[C@H]21 result="150 mg/kg"
molecule=CN1CCO[C@@H]2c3cccc4[nH]c(Br)c(c34)C[C@H]21 result="35 mg/kg"
molecule="CCCN1C[C@H](CSC)C[C@@H]2c3cccc4[nH]cc(c34)C[C@H]21.CS(=O)(=O)O [PERGOLIDE MESYLATE]" result="100 mg/kg"
molecule=CN1CCO[C@@H]2c3cccc4c3c(cn4C)C[C@H]21 result="> 200 mg/kg"
molecule=CCCN1CCO[C@@H]2c3cccc4[nH]cc(c34)C[C@H]21 result="150 mg/kg"
molecule=CCCN1CCO[C@@H]2c3cccc4c3[C@@H](CN4)C[C@H]21 result="150 mg/kg"

---

organism: Rattus norvegicus; assay: Inhibitory activity against prolactin release in rat anterior pituitary cells; assay type: functional, cell-based; details: Pituitary gland cell
pIC50: −log10 of the molar value.
Item-by-item account of pIC50
measure name: pIC50

compound=c1cc2c3c(c[nH]c3c1)C[C@H]1NCCO[C@H]21 measure_name=pIC50 inequality_symbol== numeric_result=6.52
compound="CCCN1C[C@H](CSC)C[C@@H]2c3cccc4[nH]cc(c34)C[C@H]21.CS(=O)(=O)O [PERGOLIDE MESYLATE]" measure_name=pIC50 inequality_symbol== numeric_result=10.15
compound=CCCN1CCO[C@@H]2c3cccc4c3[C@@H](CN4)C[C@H]21 measure_name=pIC50 inequality_symbol== numeric_result=10.00
compound=CCCN1CCO[C@@H]2c3cccc4[nH]cc(c34)C[C@H]21 measure_name=pIC50 inequality_symbol== numeric_result=10.22
compound=CN1CCO[C@@H]2c3cccc4c3c(cn4C)C[C@H]21 measure_name=pIC50 inequality_symbol=< numeric_result=5.00
compound=CCCN1CCO[C@@H]2c3cccc4[nH]c(Br)c(c34)C[C@H]21 measure_name=pIC50 inequality_symbol== numeric_result=9.70
compound=CN1CCO[C@@H]2c3cccc4[nH]cc(c34)C[C@H]21 measure_name=pIC50 inequality_symbol== numeric_result=7.77
compound=CN1CCO[C@@H]2c3cccc4[nH]c(Br)c(c34)C[C@H]21 measure_name=pIC50 inequality_symbol== numeric_result=7.00

---

target: Dopamine receptor; assay: In vitro binding affinity towards dopamine receptor was determined in rat striatal membrane using [3H]spiroperidol as the radioligand; assay type: cell membranes, Striatum
Item-by-item account of IC50
measure name: IC50 (nM)

compound_structure=c1cc2c3c(c[nH]c3c1)C[C@H]1NCCO[C@H]21 unit_annotation=nM numeric_result=5000
compound_structure=CCCN1CCO[C@@H]2c3cccc4[nH]c(Br)c(c34)C[C@H]21 unit_annotation=nM numeric_result=250
compound_structure=CCCN1CCO[C@@H]2c3cccc4[nH]cc(c34)C[C@H]21 unit_annotation=nM numeric_result=70
compound_structure=CN1CCO[C@@H]2c3cccc4c3c(cn4C)C[C@H]21 unit_annotation=nM numeric_result=4500
compound_structure=CN1CCO[C@@H]2c3cccc4[nH]c(Br)c(c34)C[C@H]21 unit_annotation=nM numeric_result=1000
compound_structure=CCCN1CCO[C@@H]2c3cccc4c3[C@@H](CN4)C[C@H]21 unit_annotation=nM numeric_result=600
compound_structure=CN1CCO[C@@H]2c3cccc4[nH]cc(c34)C[C@H]21 unit_annotation=nM numeric_result=800
